I'd be grateful if you could share measured growth for these entries.
Test system: SNB-19 CNS
Assay: NCI-60 one-dose screen, 48 h (100 = growth as untreated, 0 = no growth, -100 = all killed)
Conditions: 10 µM unless noted
Compounds without any hit were thinned out: in the full panel of roughly 83,000, 20% have a hit.
Numbers only, in %.

Molecule: COCCc1ccc(OCC(O)CNC(C)C)cc1 (stereo not given)
growth [%]: 105

Molecule: Cc1ccc(Cl)cc1NC(=O)c1cc2ccccc2cc1O
growth [%]: 22.8

Molecule: CCc1ccccc1-n1c(-c2ccc(Cl)cc2)cc(-c2ccc(OC)cc2)c(C#N)c1=O
growth [%]: 105

Molecule: CC(C)=C[C@@H]1c2c(c3ccccc3n(C)c2=O)O[C@H]2c3c(c4ccccc4n(C)c3=O)OC(C)(C)[C@@H]12
growth [%]: 99.2

Molecule: Cc1cccc(NC(=O)N/C(N)=N/c2nc(C)c(C)s2)c1
growth [%]: 65.4

Molecule: CCN1C(=O)N(CC)C2Nn3c(s/c(=C\c4cccc([N+](=O)[O-])c4)c3=O)=NC21 (stereo not given)
growth [%]: 53.3

Molecule: CC1=C([Se]CC(OC(=O)CC[Se]c2ccccc2)C(=O)NCCCCCC(=O)OCc2ccccc2)C(=O)c2ccccc2C1=O (stereo not given)
growth [%]: 31

Molecule: CC1(C)CC(=O)CC2(C1)N=C(N)Nc1nc3ccccc3n12 (stereo not given)
growth [%]: 99.2

Molecule: O=C(CCCCCCN1CC(=O)N2[C@@H](c3ccccc3Cl)c3[nH]c4ccccc4c3C[C@H]2C1=O)NO
growth [%]: 71.8

Q: Quick one: growth of "c1cc2ccc3cc2cc1CNCCOCCNCc1ccc2ccc(cc2c1)CNCCOCCNC3" ?
Ans: -21.8

====

I'd be grateful if you could share measured growth for these entries.
Test system: A549/ATCC NSCLC
Assay: NCI-60 one-dose screen, 48 h (100 = growth as untreated, 0 = no growth, -100 = all killed)
Conditions: 10 µM unless noted
This is part of a sample that, as a whole, favours compounds with a hit. Of some 83,000 tested, about 20% had one in any assay.
Numbers only, in %.

Consider the reported growth for these compounds:
Compound: N#Cc1c(N)nc2c(C#N)c(NC(=O)c3ccccc3)nn2c1-c1ccccc1
Quantity: growth
Readout number: 92.6
//
Compound: N[C@@H](CCCCNCC(=O)O)C(=O)O
Quantity: growth
Readout number: 101
//
Compound: Cc1ccc(NS(=O)(=O)c2ccc3c(c2)C(=O)CC(c2ccc(C(=O)C(C)C)cc2)N3)cc1C (centres undefined)
Quantity: growth
Readout number: 52.4

Each compound below has a reported value. Please supply its growth.
1. S=C(Cc1ccc2c(c1)CCCC2)N1CCOCC1
2. COc1ccc(-c2nc(SCCC(C)C)nc(N/N=C\c3cccc([N+](=O)[O-])c3)c2C#N)cc1
3. C[n+]1cc2cc(C(N)=O)[nH]c3c(=N)c(Cl)c(N)c1c23
4. COc1cc2c(cc1-c1c(C)noc1C)ncc1nc(C3CCC(F)(F)CC3)n(C3CCC(OC(F)F)CC3)c12 (centres undefined)
5. N/C(=N\c1nc2ccccc2s1)NC(=O)Nc1cccc(Cl)c1
6. CC1O[C@@H](OC2[C@H](OC(=O)/C=C/c3ccc(O)c(O)c3)C(COC3O[C@H](C)C(O)C(O)[C@@H]3O)O[C@@H](OCCc3ccc(O)c(O)c3)[C@H]2O)[C@@H](O)C(O)[C@H]1O (some centres undefined)

Ans:
[93.2, 11.7, 26.3, 64.1, 40.4, 89.8]

Each compound below has a reported value. Please supply its growth.
1. O=C(CSc1nnc(-c2ccc(NC(=O)c3cccnc3)cc2)o1)N[C@@H](Cc1ccc(O)cc1)C(=O)O
2. CN(C)CC1C(=O)O[C@H]2[C@H]1CC/C(COC(=O)c1cc3ccccc3[nH]1)=C\CC[C@@]1(C)O[C@@H]21 (some centres undefined)

Ans:
1: 104; 2: 11.5

Each compound below has a reported value. Please supply its growth.
1. COc1ccc2oc3c(C)c4c(c(C)c3c2c1)C(=O)N(Cc1ccccc1)C4=O
2. O=Cc1ccc(O)c2ncccc12
3. O=C(NCCNc1cc(-c2cn(-c3ccccc3)nc2-c2cccc(O)c2)ccn1)Nc1ccccc1
4. Cc1cc(C)c2c(-c3nnc(N)s3)cc(=O)oc2c1
5. Cn1ccc2c(c1=O)C(=O)c1nccc3c1c-2nc1ccccc13
6. N#C/C(=C\c1ccc(-c2ccccc2F)o1)c1nc(-c2ccco2)cs1
7. COC1=CC(=O)C[C@@H](C)[C@]12Oc1c(Cl)c(OC)cc(OC)c1C2=O

Ans:
83.9
100
52.5
104
-87.4
99.1
97.5

Q: Quick one: growth of "C=C1C(=O)O[C@H]2[C@H]1CC/C(CNC(=O)/C=C/c1ccc(Cl)cc1Cl)=C\CC[C@@]1(C)O[C@@H]21" ?
Ans: 20.9

====

Test system: A498 renal
Experiment: NCI-60 one-dose screen, 48 h (100 = growth as untreated, 0 = no growth, -100 = all killed)
Conditions: 10 µM unless noted
About 83,000 compounds went through this panel and 20% of them were active in at least one assay; those are over-represented in the sample as a whole.
I'd be grateful if you could share measured growth for these entries.
One number for each entry, in %.

Consider the reported growth for these molecules:
Molecule: COc1cc(/C=N/NC(=O)Cn2c(C(C)C)nc3ccccc32)ccc1O
growth (%): 81.9
//
Molecule: Cc1ccc(C(=O)C2=C(O)C(=O)N(Cc3cccnc3)C2c2ccccc2F)o1 (stereo not given)
growth (%): 95
//
Molecule: COc1ccc2[nH]c(O)c(/C=c3/cc4c(c(-c5cc(OC)c(OC)c(OC)c5)n3)=Nc3ccccc3-4)c2c1
growth (%): 43.3
//
Molecule: NC(=S)N/N=C/Cc1ccccc1
growth (%): 99.8
//
Molecule: COc1ccc(C2CC(c3cccc(OC)c3)=NN2C(=O)c2cc(OC)c(OC)c(OC)c2)cc1 (stereo not given)
growth (%): -0.548
//
Molecule: N=C1C(c2nc(-c3ccc(Br)cc3)cs2)=C(O)CN1CC1CCCO1 (stereo not given)
growth (%): 96.4
//
Molecule: Cc1nc2ccccc2c(/C=C/c2ccc(Cl)cc2)c1C(=O)/C=C/c1ccc(F)cc1
growth (%): -4.11
//
Molecule: Cc1ccc(S(=O)(=O)NCC[C@@H]2C[C@H]2c2cc3ccccc3s2)cc1
growth (%): 81.7

Each molecule below has a reported value. Please supply its growth.
1. COc1cc2ncn3c(=O)c4c5c(sc4nc3c2cc1OC)CCCC5
2. COC(=O)c1ccc(C2Nc3ccc(S(=O)(=O)Nc4ccc(C)c(C)c4)cc3C3OCCC23)cc1 (stereo not given)

Ans:
[112, 74.3]

====

Test system: LOX IMVI melanoma
Assay: NCI-60 one-dose screen, 48 h (100 = growth as untreated, 0 = no growth, -100 = all killed)
Settings: 10 µM unless noted
Experimental: Growth inhibition of the LOX IMVI human tumor cell line is measured as a screen for anti-cancer activity. Cells are grown in 96 well plates and exposed to the test compound for 48 hours. Compounds are tested at a single concentration, which is 10^-5 M for most compounds. The reported endpoint is percent growth (GI% or GIPRCNT), where numbers from 0 - 100% represent growth inhibition, and numbers from -100% - 0 represent cell death. For example, a value of 40 represents 60% growth inhibition. […]
This is part of a sample that, as a whole, favours compounds with a hit. Of some 83,000 tested, about 20% had one in any assay.
Label key: condition met means growth under 20%; condition not met means growth of 20% or more.

Compound: N=C1C(c2nc(-c3ccc(Br)cc3)cs2)=C(O)CN1CC1CCCO1 (stereo not given)
Qualitative label: condition not met
//
Compound: O=C1/C(=C/c2ccc(Br)cc2)C=C(c2ccccc2)N1CCc1ccccc1
Qualitative label: condition not met
//
Compound: COc1ccc(-c2nc(SCCC(C)C)nc(N/N=C\c3cccc([N+](=O)[O-])c3)c2C#N)cc1
Qualitative label: condition met
//
Compound: Cc1ccc(NCCN(C)C)c2c(=O)c3ccccc3sc12
Qualitative label: condition met
//
Compound: C=CC(=O)Nc1cccc(Oc2nccc(Nc3nnc(C4CC4)s3)n2)c1
Qualitative label: condition not met

Q: Given "C(=N\Nc1ncc(-c2cc3cc4c(cc3o2)OCO4)s1)/c1ccco1" , is recorded growth strictly lower than 20%?
Ans: condition met

Q: Again, but for "CCOC(=O)c1c(-c2ccc(Cl)cc2)c(C#N)c(=O)n(-c2ccccc2CC)c1N"
Ans: condition not met

Q: Again, but for "CC(C)=C[C@@H]1c2c(c3ccccc3n(C)c2=O)O[C@H]2c3c(c4ccccc4n(C)c3=O)OC(C)(C)[C@@H]12"
Ans: condition not met

Q: Again, but for "Cn1c(=O)c2c(nc(Cl)n2CCl)n(C)c1=O"
Ans: condition met

Q: Again, but for "NS(=O)(=O)c1cnccc1Oc1cccc2cccnc12"
Ans: condition not met

Q: Again, but for "CCN(CC)c1ccc2nc3c4ccccc4c(=NC(=O)c4ccccc4-c4c5ccc(N(CC)CC)cc5[o+]c5cc(N(CC)CC)ccc45)cc-3oc2c1"
Ans: condition met
